Data origin: the supplement of paper PMC10627819

Bliss interaction score values by entry
Tested on: S. aureus DSM 20231;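 also: first quartile when negative (synergy) and third quartile when positive (antagonism)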
Assay: Bliss interaction score (quartile over a dose matrix) (fitness difference); higher = more antagonism (negative = synergy)
# print the numeric value only

Example entries begin here.
CN[C@@H]1[C@H](O)[C@H](NC)[C@H]2O[C@@]3(O)C(=O)C[C@@H](C)O[C@H]3O[C@@H]2[C@H]1O [Spectinomycin] + COc1cc(Cc2cnc(N)nc2N)cc(OC)c1OC [Trimethoprim] ... 0.0932
CO[C@@H]1[C@@H](OC(N)=O)[C@@H](O)[C@H](Oc2ccc3c(O)c(NC(=O)c4ccc(O)c(CC=C(C)C)c4)c(=O)oc3c2C)OC1(C)C [Novobiocin] + CC1=C\[C@@H](O)CC(=O)Cc2nc(co2)C(=O)N2CCC=C2C(=O)O[C@H](C(C)C)[C@H](C)/C=C/C(=O)NC\C=C\1 [Virginiamycin M1] ... 0.0833
CO[C@@H]1[C@@H](OC(N)=O)[C@@H](O)[C@H](Oc2ccc3c(O)c(NC(=O)c4ccc(O)c(CC=C(C)C)c4)c(=O)oc3c2C)OC1(C)C [Novobiocin] + COc1cc(Cc2cnc(N)nc2N)cc(OC)c1OC [Trimethoprim] ... 0.134
CC(=O)NC[C@H]1CN(c2ccc(N3CCOCC3)c(F)c2)C(=O)O1 [Linezolid] + CO[C@H]1/C=C/O[C@@]2(C)Oc3c(C)c(O)c4c(O)c(c(/C=N/N5CCN(C)CC5)c(O)c4c3C2=O)NC(=O)/C(C)=C\C=C\[C@H](C)[C@H](O)[C@@H](C)[C@@H](O)[C@@H](C)[C@H](OC(C)=O)[C@@H]1C [Rifampicin] ... -0.0505
CO[C@@]12[C@H](COC(N)=O)C3=C(C(=O)C(C)=C(N)C3=O)N1C[C@@H]1N[C@@H]12 [MitomycinC] + Cn1nnc(-c2ccc(-c3ccc(N4C[C@H](CO)OC4=O)cc3F)cn2)n1 [Tedizolid] ... -0.0817

Now, please, on to the next molecule.
Give its Bliss interaction score value. Item: CN[C@H](CC(C)C)C(=O)N[C@H]1C(=O)N[C@@H](CC(N)=O)C(=O)N[C@H]2C(=O)N[C@H]3C(=O)N[C@H](C(=O)N[C@H](C(=O)O)c4cc(O)cc(O)c4-c4cc3ccc4O)[C@H](O[C@H]3C[C@](C)(N)[C@@H](O)[C@H](C)O3)c3ccc(c(Cl)c3)Oc3cc2cc(c3O[C@@H]2O[C@H](CO)[C@@H](O)[C@H](O)[C@H]2O[C@H]2C[C@](C)(NCc3ccc(-c4ccc(Cl)cc4)cc3)[C@@H](O)[C@H](C)O2)Oc2ccc(cc2Cl)[C@H]1O [Oritavancin] + CCN(CC)CCOC(=O)c1ccc(N)cc1 [Procaine]
-0.0785
